# test.method.notes: Plasma concentration in C215 transfected MC38 cells implanted C57BL/6 mouse at 5 mg/kg, po dosed as cassette formulation and measured at 1 hr after post dose by LC-MS analysis
# Type: ADME, organism-based
measured.metric: concentration at 1 h (µM)

>>> measured_value("COc1nc(Br)cnc1NS(=O)(=O)Cc1ccc(Cl)c(Cl)c1")
69.4

1 = COc1cc(Cl)cnc1NS(=O)(=O)Cc1cc(Cl)cc(Cl)c1
2 = COc1cc(Cl)ncc1NS(=O)(=O)c1cc(Cl)sc1Cl
Ask: Name the one with the greater concentration at 1 h value, either 1 or 2 as given. Please indicate the selected item by its label.
Reply: 2
(2: 91.6 µM, 1: 1.6 µM)

----------
# test.method.notes: Plasma concentration in C215 transfected MC38 cells implanted C57BL/6 mouse assessed as N-(5-bromo-3-hydroxypyrazin-2-yl)-1-(3,4-dichlorophenyl)methanesulfonamide level at 1 mg/kg, iv dosed as cassette formulation and measured at 2 hrs after post dose by LC-MS analysis
# Type: ADME, organism-based
# settings: in vivo
measured.metric: concentration (nM)
Write the answer as a number in nM, unit excluded.

Ask: I'd like to know its concentration. The compound in question is COc1nc(Br)cnc1NS(=O)(=O)Cc1ccc(Cl)c(Cl)c1
Reply: 320

----------
# test.method.notes: Plasma concentration in C215 transfected MC38 cells implanted C57BL/6 mouse at 1 mg/kg, iv dosed as cassette formulation and measured at 1 hr after post dose by LC-MS analysis
# Type: ADME, organism-based
measured.metric: concentration at 1 h (µM)

>>> measured_value("COc1nc(Br)cnc1NS(=O)(=O)Cc1ccc(Cl)c(Cl)c1")
17.5

A = COc1cc(Cl)cnc1NS(=O)(=O)Cc1cc(Cl)cc(Cl)c1
B = COc1cc(Cl)ncc1NS(=O)(=O)c1cc(Cl)sc1Cl
Ask: Returns: the label, A or B , whose recorded concentration at 1 h is the lower number. Please indicate the selected item by its label.
Reply: A
(A: 0.084 µM, B: 23.7 µM)

----------
# test.method.notes: Plasma concentration in C215 transfected MC38 cells implanted C57BL/6 mouse assessed as N-(5-chloro-3-hydroxypyridin-2-yl)-1-(3,5-dichlorophenyl)methanesulfonamide level at 5 mg/kg, po dosed as cassette formulation and measured at 0.5 hrs after post dose by LC-MS analysis
# Assay type: ADME, organism-based
# settings: in vivo
measured.metric: concentration (nM)
Your answer is read as nM, so omit the unit and give the number.

Ask: Can you look up the measured concentration of COc1cc(Cl)cnc1NS(=O)(=O)Cc1cc(Cl)cc(Cl)c1 for me?
Reply: 45

----------
# test.method.notes: Plasma concentration in C215 transfected MC38 cells implanted C57BL/6 mouse assessed as N-(5-bromo-3-hydroxypyrazin-2-yl)-1-(3,4-dichlorophenyl)methanesulfonamide level at 5 mg/kg, po dosed as cassette formulation and measured at 4 hrs after post dose by LC-MS analysis
# Format: ADME, organism-based
# settings: in vivo
measured.metric: concentration (nM)
Give the number; nM is assumed, so skip it.

Ask: What measured concentration goes with COc1nc(Br)cnc1NS(=O)(=O)Cc1ccc(Cl)c(Cl)c1 ?
Reply: 630

----------
# test.method.notes: Plasma concentration in C215 transfected MC38 cells implanted C57BL/6 mouse at 1 mg/kg, iv dosed as cassette formulation and measured at 2 hrs after post dose by LC-MS analysis
# Type: ADME, organism-based
measured.metric: concentration at 2 h (µM)

>>> measured_value("COc1cc(Cl)ncc1NS(=O)(=O)c1cc(Cl)sc1Cl")
17.5

A = COc1nc(Br)cnc1NS(=O)(=O)Cc1ccc(Cl)c(Cl)c1
B = COc1cc(Cl)cnc1NS(=O)(=O)Cc1cc(Cl)cc(Cl)c1
Ask: Lab note: check whether A or B shows the higher recorded concentration at 2 h. Lab log: write the label of the selected item as the result.
Reply: A

----------
# test.method.notes: Plasma concentration in C215 transfected MC38 cells implanted C57BL/6 mouse assessed as N-(5-bromo-3-hydroxypyrazin-2-yl)-1-(3,4-dichlorophenyl)methanesulfonamide level at 1 mg/kg, iv dosed as cassette formulation and measured at 0.5 hrs after post dose by LC-MS analysis
# Assay type: ADME, organism-based
# settings: in vivo
measured.metric: concentration (nM)
Give your result in nM as a bare value.

Ask: Given COc1nc(Br)cnc1NS(=O)(=O)Cc1ccc(Cl)c(Cl)c1 , state its recorded concentration.
Reply: 320
